Each entry below carries its reported mean cell size.
- System: Saccharomyces cerevisiae BY4741 SeMeCo community
- experiment: mean cell size (pixel area) (pixels); higher = larger cells
- condition-set: 10 µM; 24 h; SM minimal medium
Structures can show the parent of a compound that is named as a salt.
attribute-measured: mean cell size

>>> recorded_measurement("CC(=O)NO [Acetohydroxamic acid]")
12.5
>>> recorded_measurement("CCC1=C(C)CN(C(=O)NCCc2ccc(S(=O)(=O)NC(=O)N[C@H]3CC[C@H](C)CC3)cc2)C1=O [Glimepiride]")
12.5
>>> recorded_measurement("CCCOc1ccc2[nH]c(NC(=O)OC)nc2c1")
12.3
>>> recorded_measurement("COCCCC/C(=N\\OCCN)c1ccc(C(F)(F)F)cc1 [Fluvoxamine maleate]")
12.3
>>> recorded_measurement("CC1=C(C(=O)O)N2C(=O)[C@@H](NC(=O)[C@H](N)C3=CCC=CC3)[C@H]2SC1 [Cefradine]")
12.1
>>> recorded_measurement("CCC(=O)c1c(O)cc(O)cc1O")
12.5
>>> recorded_measurement("Cc1cc(C)nc(NS(=O)(=O)c2ccc(N)cc2)n1 [Sulfamethazine]")
12.5

---

- System: Saccharomyces cerevisiae BY4741 SeMeCo community
- experiment: z-score of subpopulation abundance vs DMSO median, subpopulation auxotrophic for LU; higher = larger share of this subpopulation than in DMSO controls
- condition-set: 10 µM; 24 h; SM minimal medium; subpopulation (auxotrophy): LU
Where a name gives a salt, the structure may show the parent alone.
Each item that follows carries a reported z-score of subpopulation abundance.
attribute-measured: z-score of subpopulation abundance

>>> recorded_measurement("CCOc1cc(NC(C)=O)ccc1C(=O)OC [Ethopabate]")
1.2
>>> recorded_measurement("CCCCCCCCCCCCCCCC[N+](C)(C)C [Cetrimonium Bromide (CTAB)]")
3.88
>>> recorded_measurement("CC(=O)NO [Acetohydroxamic acid]")
-0.13
>>> recorded_measurement("C[C@](N)(Cc1ccc(O)c(O)c1)C(=O)O [Methyldopa]")
-0.35
>>> recorded_measurement("CCn1cc(C(=O)O)c(=O)c2cc(F)c(N3CCN(C)CC3)cc21 [Pefloxacin Mesylate Dihydrate]")
-0.04
>>> recorded_measurement("Cc1ncc([N+](=O)[O-])n1C [Dimetridazole]")
-0.31
>>> recorded_measurement("CNCC[C@@H](Oc1ccccc1C)c1ccccc1 [Atomoxetine HCl]")
0
>>> recorded_measurement("Cc1ccc(Nc2c(F)cccc2Cl)c(CC(=O)O)c1 [Lumiracoxib]")
-1.15
>>> recorded_measurement("COc1ccc2c3c1O[C@H]1C[C@@H](O)C=C[C@@]31CCN(C)C2 [Galanthamine HBr]")
0.01
>>> recorded_measurement("CCOc1cc(N)c(Cl)cc1C(=O)NCC1CN(Cc2ccc(F)cc2)CCO1 (stereo not given) [Mosapride]")
0.77
>>> recorded_measurement("C[N+]1(C)[C@@H]2C[C@@H](OC(=O)C(O)(c3cccs3)c3cccs3)C[C@H]1[C@@H]1O[C@@H]12 [Tiotropium Bromide hydrate]")
-0.81
>>> recorded_measurement("O=C1CC2(CCCC2)CC(=O)N1CCCCN1CCN(c2ncccn2)CC1 [Buspirone HCl]")
1.78
>>> recorded_measurement("COc1ccc(NS(=O)(=O)c2ccc(N)cc2)nn1 [Sulfamethoxypyridazine]")
-0.73
>>> recorded_measurement("Cc1cc(O)c(C(=O)N[C@@H](C(=O)N[C@@H]2C(=O)N3C(C(=O)O)=C(CSc4nnnn4C)CS[C@H]23)c2ccc(O)cc2)cn1 [Cefpiramide sodium]")
-0.12
>>> recorded_measurement("CCCOc1ccc(C(=O)OCCN(CC)CC)cc1N [Proparacaine HCl]")
0.25

---

- Tested on: Saccharomyces cerevisiae BY4741 SeMeCo community
- experiment: z-score of subpopulation abundance vs DMSO median, subpopulation auxotrophic for HU; higher = larger share of this subpopulation than in DMSO controls
- condition-set: 10 µM; 24 h; SM minimal medium; subpopulation (auxotrophy): HU
Structures can show the parent of a compound that is named as a salt.
Listing: z-score of subpopulation abundance of selected compounds
attribute-measured: z-score of subpopulation abundance

>>> recorded_measurement("CC(=O)OCC(COC(C)=O)OC(C)=O")
0.55
>>> recorded_measurement("COC(=O)Nc1nc2cc(Sc3ccccc3)ccc2[nH]1")
-0.37
>>> recorded_measurement("CCN(CC)C(=O)C1(c2ccccc2)CC1CN (stereo not given) [Milnacipran HCl]")
-0.14
>>> recorded_measurement("CCCCOc1ccc(C(=O)CCN2CCCCC2)cc1 [Dyclonine HCl]")
0.17
>>> recorded_measurement("C#C[C@]1(OC(C)=O)CC[C@H]2[C@@H]3CCC4=C[C@@H](OC(C)=O)CC[C@@H]4[C@H]3CC[C@@]21C [Ethynodiol diacetate]")
-0.23
>>> recorded_measurement("CCCCCC(=O)O[C@]1(C(C)=O)CC[C@H]2[C@@H]3CCC4=CC(=O)CC[C@]4(C)[C@H]3CC[C@@]21C [Hydroxyprogesterone caproate]")
1.19
>>> recorded_measurement("Cc1ccc(Sc2ccccc2N2CCNCC2)c(C)c1")
0.9
>>> recorded_measurement("CC1(C)S[C@@H]2[C@H](NC(=O)C(c3ccccc3)S(=O)(=O)O)C(=O)N2[C@H]1C(=O)O (stereo not given in full) [Sulbenicillin Sodium]")
0.51
>>> recorded_measurement("CCc1c2c(nc3ccc(OC(=O)N4CCC(N5CCCCC5)CC4)cc13)-c1cc3c(c(=O)n1C2)COC(=O)[C@]3(O)CC [Irinotecan HCl Trihydrate]")
-0.6
>>> recorded_measurement("CC(C)[N+](C)(CCOC(=O)C1c2ccccc2Oc2ccccc21)C(C)C [Propantheline bromide]")
-0.76
>>> recorded_measurement("Cc1ncc([N+](=O)[O-])n1CC(O)CCl (stereo not given)")
-0.37
>>> recorded_measurement("CN1C(C(=O)Nc2ccccn2)=C(O)c2ccccc2S1(=O)=O")
-0.6
>>> recorded_measurement("O=c1[nH]cnc2c1ncn2[C@@H]1O[C@H](CO)[C@@H](O)[C@H]1O")
-0.35
>>> recorded_measurement("C[C@@H]1CN(c2c(F)c(N)c3c(=O)c(C(=O)O)cn(C4CC4)c3c2F)C[C@H](C)N1")
-0.11
>>> recorded_measurement("Nc1c(Br)cc(Br)cc1CN[C@H]1CC[C@H](O)CC1 [Ambroxol HCl]")
-1.1
>>> recorded_measurement("C=CCN1CCCC1CNC(=O)c1cc2nn[nH]c2cc1OC (stereo not given) [Alizapride HCl]")
0.88
>>> recorded_measurement("O=C(NCCO[N+](=O)[O-])c1cccnc1")
-0.39
>>> recorded_measurement("Nc1ccc(/N=N/c2ccccc2)c(N)n1 [Phenazopyridine HCl]")
-2.46
>>> recorded_measurement("NC[C@H]1O[C@H](O[C@H]2[C@H](O)[C@@H](O[C@H]3O[C@H](CO)[C@@H](O)[C@H](N)[C@H]3O)[C@H](N)C[C@@H]2N)[C@H](O)[C@@H](O)[C@@H]1O [Kanamycin sulfate]")
-0.5
>>> recorded_measurement("CC1=C(C(=O)O)N2C(=O)[C@@H](NC(=O)[C@H](N)c3ccccc3)[C@H]2SC1")
-0.74
>>> recorded_measurement("CC(C(=O)O)c1ccc2c(c1)Cc1cccnc1O2 (stereo not given)")
0.43
>>> recorded_measurement("O=C(O)c1ccccc1O")
-1
>>> recorded_measurement("N[C@@H]1CONC1=O")
-0.43
>>> recorded_measurement("NCc1ccccc1CC(=O)N[C@@H]1C(=O)N2C(C(=O)O)=C(CSc3nnnn3CC(=O)O)CS[C@H]12 [Ceforanide]")
0.2
>>> recorded_measurement("NC1CCN(c2nc3c(cc2F)c(=O)c(C(=O)O)cn3-c2ccc(F)cc2F)C1 (stereo not given) [Tosufloxacin p-Toluenesulfonate Hydrate]")
-0.62

---

- Tested on: Saccharomyces cerevisiae BY4741 SeMeCo community
- experiment: z-score of subpopulation abundance vs DMSO median, subpopulation auxotrophic for U; higher = larger share of this subpopulation than in DMSO controls
- condition-set: 10 µM; 24 h; SM minimal medium; subpopulation (auxotrophy): U
Where a name gives a salt, the structure may show the parent alone.
Below, each entry is listed with its recorded z-score of subpopulation abundance.
attribute-measured: z-score of subpopulation abundance

>>> recorded_measurement("CCCCN1CCCC[C@H]1C(=O)Nc1c(C)cccc1C [Levobupivacaine HCl]")
-0.04
>>> recorded_measurement("CN(C)c1cc(NC(=O)CNC(C)(C)C)c(O)c2c1CC1CC3C(N(C)C)C(=O)C(C(N)=O)=C(O)C3(O)C(=O)C1=C2O (configuration not stated)")
0.22
>>> recorded_measurement("CN(Cc1cnc2nc(N)nc(N)c2n1)c1ccc(C(=O)N[C@@H](CCC(=O)O)C(=O)O)cc1 [Methotrexate disodium]")
-4.34
>>> recorded_measurement("CN1CCN(CCCN2c3ccccc3Sc3ccc(C(F)(F)F)cc32)CC1 [Trifluoperazine 2HCl]")
0.38
>>> recorded_measurement("CN1CCCN=C1/C=C/c1cccs1 [Pyrantel Pamoate]")
0.04
>>> recorded_measurement("Nc1ccc(/N=N/c2ccccc2)c(N)n1 [Phenazopyridine HCl]")
-2.82
>>> recorded_measurement("CO[C@@]1(NC(=O)CSC[C@@H](N)C(=O)O)C(=O)N2C(C(=O)O)=C(CSc3nnnn3C)CS[C@@H]21 [Cefminox Sodium]")
0.77
>>> recorded_measurement("CS(=O)(=O)c1ccc(C2=C(c3ccccc3)C(=O)OC2)cc1")
-0.52
>>> recorded_measurement("C=CC1=C(C(=O)O)N2C(=O)[C@@H](NC(=O)/C(=N\\OCC(=O)O)c3csc(N)n3)[C@H]2SC1")
0.43
>>> recorded_measurement("C[C@H]1O[C@@H](O[C@H]2[C@@H](O)C[C@H](O[C@H]3[C@@H](O)C[C@H](O[C@H]4CC[C@@]5(C)[C@H](CC[C@@H]6[C@@H]5C[C@@H](O)[C@]5(C)[C@@H](C7=CC(=O)OC7)CC[C@]65O)C4)O[C@@H]3C)O[C@@H]2C)C[C@H](O)[C@@H]1O")
0.17
>>> recorded_measurement("Nc1ccc(S(=O)(=O)Nc2nccs2)cc1")
0.9
>>> recorded_measurement("CC(=O)Oc1ccccc1C(=O)O")
-0.25
